# assayed system: T1, EsCas13d, nuclease-dead (Eubacterium siraeum, UniProt B0MS50, R295A;H300A;R849A;H854A)
# T1 sequence: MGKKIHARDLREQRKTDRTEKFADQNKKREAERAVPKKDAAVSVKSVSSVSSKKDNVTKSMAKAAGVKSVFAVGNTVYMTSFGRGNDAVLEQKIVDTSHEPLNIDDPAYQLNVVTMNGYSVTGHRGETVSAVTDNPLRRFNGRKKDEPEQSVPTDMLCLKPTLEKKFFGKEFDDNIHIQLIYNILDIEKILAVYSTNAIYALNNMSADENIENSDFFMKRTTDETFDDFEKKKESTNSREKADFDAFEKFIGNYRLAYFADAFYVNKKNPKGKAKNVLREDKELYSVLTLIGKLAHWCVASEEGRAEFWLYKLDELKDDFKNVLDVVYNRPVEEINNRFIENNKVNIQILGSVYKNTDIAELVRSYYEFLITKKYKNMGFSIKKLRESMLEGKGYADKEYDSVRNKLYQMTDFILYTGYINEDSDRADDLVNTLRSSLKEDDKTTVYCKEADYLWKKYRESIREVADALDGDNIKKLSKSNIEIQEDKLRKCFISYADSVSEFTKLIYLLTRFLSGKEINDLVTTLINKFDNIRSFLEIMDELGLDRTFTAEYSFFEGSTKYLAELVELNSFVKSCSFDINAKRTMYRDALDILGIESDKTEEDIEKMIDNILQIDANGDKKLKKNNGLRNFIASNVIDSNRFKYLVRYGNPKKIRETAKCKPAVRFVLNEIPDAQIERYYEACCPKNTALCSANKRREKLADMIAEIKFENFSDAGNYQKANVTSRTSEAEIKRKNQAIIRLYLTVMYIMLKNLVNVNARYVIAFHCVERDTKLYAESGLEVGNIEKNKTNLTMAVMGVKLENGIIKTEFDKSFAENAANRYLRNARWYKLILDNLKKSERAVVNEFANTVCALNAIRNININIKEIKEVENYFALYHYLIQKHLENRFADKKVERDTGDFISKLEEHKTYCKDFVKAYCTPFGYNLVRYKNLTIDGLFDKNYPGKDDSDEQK
# test method notes: crRNA (strand 1, pre-loaded); Mg2+; 40 mM Tris-HCl pH 7.5, 150 mM NaCl, 6 mM MgCl2, 1 mM DTT, 0.1% Tween-20, 0.2 mg/ml BSA; 25 C; 10 min per concentration, then washed
# condition: tags: His6-TwinStrep-SUMO cleaved; N-terminal SNAP kept (SNAP-Surface 488); label: 3' end held by stalled T7 RNA polymerase
# Kd annotations
Number in nM, nothing else.

Example cases with answers are listed next.
# binder, unit annotation, Kd
rows = [
    ("target 1 U3C (mixed) RNA 1: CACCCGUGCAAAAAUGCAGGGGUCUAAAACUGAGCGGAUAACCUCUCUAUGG RNA 2: GGGAAUGGAUCCACAUCUACGAAUUCGUACCAUAGAGAGGUUAUCCGCCCACCGAGAUCGGAAGAGCACACGU", "nM", 26.3),
    ("target 1 A1G,C2G (mixed) RNA 1: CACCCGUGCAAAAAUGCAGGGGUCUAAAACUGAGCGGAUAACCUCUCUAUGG RNA 2: GGGAAUGGAUCCACAUCUACGAAUUCGUACCAUAGAGAGGUUAUCCGCUGGCCGAGAUCGGAAGAGCACACGU", "nM", 5.54),
    ("target 1 MT 5'PFS GCA 3'PFS AUG (mixed) RNA 1: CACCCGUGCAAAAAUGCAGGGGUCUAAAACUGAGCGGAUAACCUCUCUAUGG RNA 2: GGGAAUGGAUCCACAUCUACGAAUUCGCACCAUAGAGAGGUUAUCCGCUCAAUGAGAUCGGAAGAGCACACGU", "nM", 24.5),
]

Next up:
QUERY: Can you look up the measured Kd of target 1 insG 3' of 1,insC 3' of 1 (mixed) RNA 1: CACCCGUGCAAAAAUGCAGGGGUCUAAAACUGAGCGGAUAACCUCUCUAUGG RNA 2: GGGAAUGGAUCCACAUCUACGAAUUCGUACCAUAGAGAGGUUAUCCGCUCAGCCCGAGAUCGGAAGAGCACACGU for me?
RESULT: 11
